Reference for the values: ChEMBL document CHEMBL1124275

# STUDY SYSTEM: Tyrosine-protein kinase transforming protein Abl (Abelson murine leukemia virus, UniProt P00521)
# Sequence (P00521 whole entry): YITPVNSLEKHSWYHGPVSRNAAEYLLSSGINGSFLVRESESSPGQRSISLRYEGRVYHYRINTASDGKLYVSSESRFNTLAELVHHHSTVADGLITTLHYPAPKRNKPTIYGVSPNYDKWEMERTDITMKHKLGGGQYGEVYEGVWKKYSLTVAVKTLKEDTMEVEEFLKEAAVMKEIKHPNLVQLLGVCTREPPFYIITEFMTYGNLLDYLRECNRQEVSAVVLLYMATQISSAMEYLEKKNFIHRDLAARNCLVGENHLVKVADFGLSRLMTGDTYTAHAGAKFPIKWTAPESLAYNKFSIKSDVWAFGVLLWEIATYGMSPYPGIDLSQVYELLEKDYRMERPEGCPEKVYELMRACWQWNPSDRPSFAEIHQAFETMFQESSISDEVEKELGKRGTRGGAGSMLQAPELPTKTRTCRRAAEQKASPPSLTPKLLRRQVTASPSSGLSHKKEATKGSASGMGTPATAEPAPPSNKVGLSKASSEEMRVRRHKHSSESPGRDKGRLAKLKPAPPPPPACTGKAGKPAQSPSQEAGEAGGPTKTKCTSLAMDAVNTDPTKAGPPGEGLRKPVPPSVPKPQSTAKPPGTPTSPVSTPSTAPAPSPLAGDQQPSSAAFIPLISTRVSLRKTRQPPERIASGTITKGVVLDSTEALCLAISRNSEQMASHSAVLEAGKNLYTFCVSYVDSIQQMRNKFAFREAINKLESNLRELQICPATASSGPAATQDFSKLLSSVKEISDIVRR
# MEASUREMENT DESCRIPTION: Inhibition of p60-vabl tyrosine kinase isolated from Abelson murine leukemia virus (A-MuLV)
READOUT KIND: IC50 (µM)
Numbers only here, please. The scale is µM.

Suppose we examine the molecule Nc1ncnc2c1ncn2[C@@H]1O[C@H](COC(=O)c2ccc(S(=O)(=O)NCc3ccccc3)cc2)[C@@H](O)[C@H]1O ; what IC50 value has been reported? 45

Consider the molecule shown here: Nc1ncnc2c1ncn2[C@@H]1O[C@H](COC(=O)c2ccc(S(=O)(=O)NCCCc3ccccc3)cc2)[C@@H](O)[C@H]1O What is its recorded IC50? 56

Entry under review: CS(=O)(=O)c1ccc(C(=O)OC[C@H]2O[C@@H](n3cnc4c(N)ncnc43)[C@H](O)[C@@H]2O)cc1 . Reported IC50? 63

Can you look up the measured IC50 of CC(=O)NC(Cc1ccc(OS(=O)(=O)c2ccc(C(=O)OC[C@H]3O[C@@H](n4cnc5c(N)ncnc54)[C@H](O)[C@@H]3O)cc2)cc1)C(N)=O (some centres undefined) for me? 120

For the molecule Nc1ncnc2c1ncn2[C@@H]1O[C@H](COC(=O)c2ccc(S(=O)(=O)Oc3ccccc3)cc2)[C@@H](O)[C@H]1O , what IC50 is on record? 170

If you can, please state the reported IC50 value of Nc1ncnc2c1ncn2[C@@H]1O[C@H](COC(=O)c2ccc(S(=O)(=O)NCCc3ccccc3)cc2)[C@@H](O)[C@H]1O . 50

Which IC50 is listed for Nc1ncnc2c1ncn2[C@@H]1O[C@H](COC(=O)c2ccc(S(N)(=O)=O)cc2)[C@@H](O)[C@H]1O ? 120

Record request: IC50 value, item Nc1ncnc2c1ncn2[C@@H]1O[C@H](COC(=O)c2ccc(S(=O)(=O)Nc3ccccc3)cc2)[C@@H](O)[C@H]1O 19

Entry under review: Nc1ncnc2c1ncn2[C@@H]1O[C@H](COC(=O)c2ccc(S(=O)(=O)F)cc2)[C@@H](O)[C@H]1O . Reported IC50? 150

====

Would you kindly list pIC50 for each of these compounds?
# MEASUREMENT DESCRIPTION: Inhibition of Phosphorylase (serine) Kinase activity
Friendly reminder that pIC50 comes from taking -log10 of the concentration in mol/L.

What does the record list as pIC50 for Nc1ncnc2c1ncn2[C@@H]1O[C@H](COC(=O)c2ccc(S(=O)(=O)NCCCc3ccccc3)cc2)[C@@H](O)[C@H]1O ? 4.30

Returns the measured pIC50 for the input compound. Input: Nc1ncnc2c1ncn2[C@@H]1O[C@H](COC(=O)c2ccc(S(=O)(=O)F)cc2)[C@@H](O)[C@H]1O 3.60

Any idea what pIC50 was measured for Nc1ncnc2c1ncn2[C@@H]1O[C@H](COC(=O)c2ccc(S(=O)(=O)Oc3ccccc3)cc2)[C@@H](O)[C@H]1O ? 4.10

Consider the compound Nc1ncnc2c1ncn2[C@@H]1O[C@H](COC(=O)c2ccc(S(N)(=O)=O)cc2)[C@@H](O)[C@H]1O and give its measured pIC50. 4.22

Give its pIC50 value. Item: Nc1ncnc2c1ncn2[C@@H]1O[C@H](COC(=O)c2ccc(S(=O)(=O)Nc3ccccc3)cc2)[C@@H](O)[C@H]1O 4.60
